Values from patent US12440496B2

Biological target: hNPRA (Homo sapiens)
Sequence (P16066 33-1061): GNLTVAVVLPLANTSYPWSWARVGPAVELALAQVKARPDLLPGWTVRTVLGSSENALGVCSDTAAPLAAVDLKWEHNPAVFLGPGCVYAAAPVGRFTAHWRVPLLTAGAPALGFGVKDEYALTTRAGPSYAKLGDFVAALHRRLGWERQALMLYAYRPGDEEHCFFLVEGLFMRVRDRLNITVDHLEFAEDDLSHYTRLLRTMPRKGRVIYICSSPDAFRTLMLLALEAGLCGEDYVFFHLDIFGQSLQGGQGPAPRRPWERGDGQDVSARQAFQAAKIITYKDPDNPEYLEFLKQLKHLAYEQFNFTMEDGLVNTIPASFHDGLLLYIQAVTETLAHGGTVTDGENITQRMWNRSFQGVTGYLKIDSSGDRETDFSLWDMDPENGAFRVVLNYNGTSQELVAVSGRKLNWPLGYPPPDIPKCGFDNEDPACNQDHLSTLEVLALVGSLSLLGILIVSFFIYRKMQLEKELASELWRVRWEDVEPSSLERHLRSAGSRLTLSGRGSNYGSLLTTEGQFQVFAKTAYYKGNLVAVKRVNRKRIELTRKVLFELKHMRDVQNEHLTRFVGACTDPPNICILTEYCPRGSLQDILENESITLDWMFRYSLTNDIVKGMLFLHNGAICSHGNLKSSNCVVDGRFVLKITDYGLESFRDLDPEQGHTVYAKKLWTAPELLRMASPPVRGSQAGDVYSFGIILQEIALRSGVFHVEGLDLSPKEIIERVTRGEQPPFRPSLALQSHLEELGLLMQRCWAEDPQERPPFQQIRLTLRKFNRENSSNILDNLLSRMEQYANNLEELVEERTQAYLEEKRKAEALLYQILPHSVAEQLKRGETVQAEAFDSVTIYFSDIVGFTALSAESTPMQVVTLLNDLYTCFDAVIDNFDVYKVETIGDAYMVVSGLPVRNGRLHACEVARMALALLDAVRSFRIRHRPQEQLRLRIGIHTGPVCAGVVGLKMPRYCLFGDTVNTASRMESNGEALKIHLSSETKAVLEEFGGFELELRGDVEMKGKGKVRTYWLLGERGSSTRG
Experiment: NPRA Functional Cell Assay (cGMP HTRF, NPRA HEK JumpIn stable cells)
Settings: cGMP production, 1 hour at 37° C., 10-point dose response
pEC50: −log10 of the molar value.
property: pEC50

molecule	targetOfAssay	val
CC(C)(C)[C@H]1CCc2nc3sc(C(=O)N[C@H](CCN4CCCC(O)C4)c4ccc(-c5ccc(=O)[nH]c5)cc4)cc3cc2C1 (mixture of isomers)	hNPRA (Homo sapiens)	6.10

[P] COC(=O)CC1CCN(CC[C@@H](NC(=O)c2nc3cc4c(nc3s2)CC[C@H](C(C)(C)C)C4)c2cccc(C(=O)NC3CN(C)C3)c2)CC1 (racemic)
[Q] CN(C)CC[C@@H](NC(=O)c1nc2cc3c(nc2s1)CC[C@H](C(C)(C)C)C3)c1cccc(C(=O)N2CCOCC2)c1 (racemic)
# return whichever of P and Q has the smaller pEC50 // return label of chosen record
Q

###

Target: hNPRA (Homo sapiens, UniProt P16066)
Construct: expressed in transfected cells
Experiment: NPRA Functional Cell Assay (cGMP HTRF, NPRA HEK JumpIn stable cells)
Assay type: cell-based
Settings: cGMP production, 1 hour at 37° C., 10-point dose response
Counter-ions that a name gives are not always drawn.
property: EC50 (nM)

compound	targetOfAssay	EC50, nM
CC(C)(C)[C@H]1CCc2nc3sc(C(=O)N[C@H](CCNC4CCOCC4)c4ccc(-c5ccc(=O)[nH]c5)cc4)cc3cc2C1 (racemic) [Example 36]	hNPRA (Homo sapiens, UniProt P16066)	557

[a] CC(C)(C)[C@H]1CCc2nc3sc(C(=O)N[C@H](CCNC4CCCC4)c4ccc(-c5ccc(=O)[nH]c5)cc4)cc3cc2C1 (racemic) [Example 52]
[b] CC(C)(C)[C@H]1CCc2nc3sc(C(=O)N[C@H](CCN4CCC(O)CC4)c4cccc(C(=O)N[C@@H]5CNC[C@H]5O)c4)nc3cc2C1 (racemic) [Example 135]
[c] CC(C)(C)[C@H]1CCc2nc3sc(C(=O)N[C@H](CCN4CCC5OCCCC5C4)c4ccc(-c5cnc(O)c(F)c5)cc4)nc3cc2C1 (mixture of isomers) [Example 204, formate]
# rank_down: sort by EC50, max first Write the labels in rank order as requested.
c, a, b
(c: 1290 nM, a: 729 nM, b: 132 nM)

###

Target: hNPRA (Homo sapiens)
Construct: expressed in transfected cells
Assay: NPRA Functional Cell Assay (cGMP HTRF, NPRA HEK JumpIn stable cells)
Type: cell-based
Conditions: cGMP production, 1 hour at 37° C., 10-point dose response
Structures can show the parent of a compound that is named as a salt.
property: EC50 (nM)

Below: 3 compounds and their reported EC50.
compound	targetOfAssay	EC50 [nM]
CN(C)S(=O)(=O)Nc1ccc([C@@H](CCN2CCCOCC2)NC(=O)c2nc3cc4c(nc3s2)CC[C@H](C(C)(C)C)C4)cn1 (racemic) [Example 205, 2,2,2-trifluoroacetate]	hNPRA (Homo sapiens)	563
CN1CC(NC(=O)c2cccc([C@@H](CCN3CCC(C(=O)O)C3)NC(=O)c3nc4cc5c(nc4s3)CC[C@H](C(C)(C)C)C5)c2)C1 (mixture of isomers)	hNPRA (Homo sapiens)	754
CN1CC(NC(=O)c2cccc([C@@H](CCN3CCC(c4cccc(C(=O)O)c4)CC3)NC(=O)c3nc4cc5c(nc4s3)CC[C@H](C(C)(C)C)C5)c2)C1 (racemic)	hNPRA (Homo sapiens)	526

[a] CC(C)[C@]1(F)CCc2nc3sc(C(=O)N[C@H](CCN4CCC(O)CC4)c4ccc(N5CC(=O)NC5=O)nc4)nc3cc2C1
[b] CC(C)(C)[C@H]1CCc2nc3sc(C(=O)N[C@H](CCN4CCC5(CC4)CNC(=O)O5)c4ccc(-c5ccc(=O)[nH]c5)cc4)cc3cc2C1 (racemic)
# return whichever of a and b has the smaller EC50 // return label of chosen record
a

[a] CC(C)(C)[C@H]1CCc2nc3sc(C(=O)N[C@H](CCN[C@@H]4C[C@H](CO)[C@@H](O)[C@H]4O)c4ccc(-c5ccc(=O)[nH]c5)cc4)cc3cc2C1 (racemic)
[b] CC(C)(C)[C@H]1CCc2nc3sc(C(=O)N[C@H](CCN4CCC(O)CC4)c4ccc(-c5ccnnc5)cc4)nc3cc2C1 (racemic)
[c] CC(C)(C)[C@H]1CCc2nc3sc(C(=O)N[C@H](CCN4CC(c5ccccn5)C4)c4cccc(NS(C)(=O)=O)c4)cc3cc2C1 (racemic)
[d] Cc1n[nH]c(C)c1Oc1ccc([C@@H](CCN2CCC(O)CC2)NC(=O)c2nc3cc4c(nc3s2)CC[C@H](C(C)(C)C)C4)cn1 (racemic)
Exam item: list the entries in increasing order of EC50. Write the labels in rank order as requested.
b, d, a, c
(b: 198 nM, d: 632 nM, a: 1130 nM, c: 1790 nM)

[P] COC(=O)C1CN(C(=O)c2cccc([C@@H](CCN3CCC(O)CC3)NC(=O)c3nc4cc5c(nc4s3)CC[C@H](C(C)(C)C)C5)c2)CCO1 (mixture of isomers)
[Q] CC(C)(C)[C@H]1CCc2nc3sc(C(=O)N[C@H](CCN4CCCCC4)c4ccc(-c5cncnc5)cc4)cc3cc2C1 (racemic)
[R] CC(C)(C)C1CCc2nc3sc(C(=O)NC(CCN4CC5C(CO)C5C4)c4ccc(-c5ccc(=O)[nH]c5)cc4)cc3cc2C1 (racemic)
[S] CC(C)(C)[C@H]1CCc2nc3sc(C(=O)N[C@H](CCN4CCC(O)CC4)c4cccc(C(=O)N5CC(O)(C(F)(F)F)C5)c4)nc3cc2C1 (racemic)
[T] CC(C)(C)[C@H]1CCc2nc3sc(C(=O)N[C@H](CCN4CCC(O)CC4)c4cccc(C(=O)N[C@H]5CNC[C@@H]5O)c4)nc3cc2C1 (racemic)
# rank_down: sort by EC50, max first Write the labels in rank order as requested.
Q, P, S, R, T
(Q: 2000 nM, P: 1210 nM, S: 716 nM, R: 408 nM, T: 176 nM)

[P] CC(C)(C)[C@H]1CCc2nc3sc(C(=O)N[C@H](CCN4CCC(O)CC4)c4ccc(-c5ccc(O)cc5)cc4)nc3cc2C1 (racemic)
[Q] CC(C)(C)[C@H]1CCc2nc3sc(C(=O)N[C@H](CCN(CCO)CCO)c4ccc(-c5ccc(=O)[nH]c5)cc4)cc3cc2C1 (racemic)
# return whichever of P and Q has the smaller EC50 // return label of chosen record
Q

[P] Cn1nccc1-c1ccc([C@@H](CCN2CCC(O)CC2)NC(=O)c2nc3cc4c(nc3s2)CC[C@H](C(C)(C)C)C4)cc1 (racemic) [Example 81, formate]
[Q] CC(C)(C)[C@H]1CCc2nc3sc(C(=O)N[C@H](CCN4CCCC5(CCNC5=O)C4)c4cccc(NS(C)(=O)=O)c4)cc3cc2C1 (mixture of isomers)
[R] CC(C)(C)[C@H]1CCc2nc3sc(C(=O)N[C@H](CCN4CCC(n5ncnn5)CC4)c4ccc(-c5ccc(=O)[nH]c5)cc4)cc3cc2C1 (racemic)
# rank_down: sort by EC50, max first Write the labels in rank order as requested.
Q, P, R

[A] CC1(O)CN(CC[C@@H](NC(=O)c2cc3cc4c(nc3s2)CC[C@H](C(C)(C)C)C4)c2ccc(-c3ccc(=O)[nH]c3)cc2)C1 (racemic)
[B] CN1CC(NC(=O)c2cccc([C@@H](CCN3CCC(O)CC3)NC(=O)c3nc4cc5c(nc4s3)CC[C@H](C(C)(C)C)C5)c2)CCC1=O (mixture of isomers)
# return whichever of A and B has the smaller EC50 // return label of chosen record
B
(B: 890 nM, A: 1300 nM)
